meta.source: patent US20250250357A1

# STUDY_SYSTEM: T1, human MSLN-R1-his protein (human, UniProt Q13421 296-390)
# T1 construct: Region 1 of human mesothelin, made in HEK293E cells, His-tagged; also called human MSLN-R1 protein; hMSLN-R1-his; not shown: His tag
# T1 chain: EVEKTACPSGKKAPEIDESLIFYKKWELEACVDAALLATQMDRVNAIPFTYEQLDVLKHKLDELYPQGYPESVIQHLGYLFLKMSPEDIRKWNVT
# ASSAY_REMARKS: ELISA on coated MSLN-R1; antibody 0.001 nM
READOUT_NAME: OD450 (OD450)

binder="S009-F8-27.1 (antibody, human IgG1, kappa, V domains shown) VH: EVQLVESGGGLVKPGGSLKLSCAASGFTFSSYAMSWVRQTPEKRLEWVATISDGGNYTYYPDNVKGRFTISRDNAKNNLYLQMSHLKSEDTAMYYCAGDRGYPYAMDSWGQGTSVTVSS VL: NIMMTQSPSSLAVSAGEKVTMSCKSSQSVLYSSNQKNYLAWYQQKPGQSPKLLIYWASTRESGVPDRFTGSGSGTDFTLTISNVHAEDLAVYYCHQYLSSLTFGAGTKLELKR" readout_name=OD450 obs_value=0.04
binder="S009-F8-36.12 (antibody, human IgG1, kappa, V domains shown) VH: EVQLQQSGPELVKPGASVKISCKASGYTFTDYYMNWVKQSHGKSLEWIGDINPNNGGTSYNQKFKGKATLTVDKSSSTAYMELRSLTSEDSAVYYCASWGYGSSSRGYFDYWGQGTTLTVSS VL: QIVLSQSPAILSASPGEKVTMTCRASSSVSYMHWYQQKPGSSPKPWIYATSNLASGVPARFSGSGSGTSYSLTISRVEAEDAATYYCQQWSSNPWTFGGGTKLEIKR" readout_name=OD450 obs_value=0.04
binder="S009-F8-12.13 (antibody, human IgG1, kappa, V domains shown) VH: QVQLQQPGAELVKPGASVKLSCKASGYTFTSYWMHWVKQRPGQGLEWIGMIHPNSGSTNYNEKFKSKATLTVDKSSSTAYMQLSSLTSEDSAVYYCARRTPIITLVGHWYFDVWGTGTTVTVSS VL: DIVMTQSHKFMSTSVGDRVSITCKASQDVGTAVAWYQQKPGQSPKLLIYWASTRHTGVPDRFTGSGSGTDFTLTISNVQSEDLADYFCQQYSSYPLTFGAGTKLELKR" readout_name=OD450 obs_value=0.52
